- Test system: parental HEK cells
- TEST NAME: HEK parental Agonist Counterscreen Assay (non-transfected cells)
- Format: cell-based
- TEST CONTEXT: HEK Agonist Activity section
PARAMETER MEASURED: Lipophilic Efficiency (logP)

COMPOUND | Lipophilic Efficiency (logP)
COc1ccc(C2(C)NC(=O)N(CC(=O)NCc3ccc(F)cc3)C2=O)cc1 (stereo not shown) | 3.10
COc1ccc(CCNC(=O)c2ccnc(N3CCN(Cc4ccc5c(c4)OCO5)CC3)c2)cc1 | 1.29
O=C(NCCS(=O)(=O)N1CCc2ccccc2C1)C(c1ccccc1)c1ccccc1 | 1.49
O=c1cc(-c2ccccc2)[nH]c2nc(OCc3cccc([N+](=O)[O-])c3)nn12 | 1.72
O=C(CN1CCN(Cc2ccccc2Cl)C1=O)NC1CCCCCC1 | 2.02

A. COc1cc(C(=O)NNC(=O)CCc2c[nH]c3ccccc23)ccc1OC(C)C
B. Cc1cccc(OCC(=O)NNC(=O)C(C)Oc2ccc(Cl)cc2Cl)c1 (stereo not shown)
Would you kindly point out which of A and B has the smaller Lipophilic Efficiency (logP) figure? Your answer should be the label attached to the chosen record. B
(B: 1.15, A: 1.78)

* * *

- TESTED TARGET: GPR139 (Homo sapiens, UniProt Q6DWJ6)
- TEST NAME: GPR139 Agonist titration / agonist counterscreen assay (calcium detection, HEK-GPR139 cells)
- Assay type: cell-based
- Design: expressed in transfected cells; host or cells: HEK Aequorin cells, Maxcyte transient transfection
- TEST CONTEXT: GPR139 Agonist Activity; fitted dose-response curve
PARAMETER MEASURED: Hill Slope

COMPOUND | Hill Slope
O=C(CN1C(=O)NC2(CCc3ccccc32)C1=O)Nc1cccc(Cl)c1 (stereo not drawn) [SR-01000069699] | 0.54

1. COc1cc(OC)cc(C(=O)NNC(=O)C(C)Oc2ccc(Cl)cc2Cl)c1 (stereo not drawn) [SR-01000358013]
2. O=C(CN1CCCc2ccccc21)NNC(=O)Nc1ccc(Cl)c(Cl)c1 [SR-01000029575]
Identify the entry with the larger Hill Slope. Options: 1 and 2 Reply with the label of the item you choose. 2
(2: 0.79, 1: 0.21)

* * *

- TESTED TARGET: GPR139 (Homo sapiens)
- Sequence (Q6DWJ6 1-353): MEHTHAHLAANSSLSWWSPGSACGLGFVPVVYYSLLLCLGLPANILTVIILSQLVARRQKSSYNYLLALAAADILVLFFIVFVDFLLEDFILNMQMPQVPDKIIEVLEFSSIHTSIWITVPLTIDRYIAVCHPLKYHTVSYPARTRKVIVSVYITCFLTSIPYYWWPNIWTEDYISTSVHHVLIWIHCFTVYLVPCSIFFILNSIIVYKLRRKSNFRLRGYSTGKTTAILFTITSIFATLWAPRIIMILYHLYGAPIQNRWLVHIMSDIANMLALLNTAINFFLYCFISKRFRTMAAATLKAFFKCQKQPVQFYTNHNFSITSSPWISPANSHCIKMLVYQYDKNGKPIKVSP
- TEST NAME: GPR139 Agonist titration / agonist counterscreen assay (calcium detection, HEK-GPR139 cells)
- Assay type: cell-based
- Set-up: expressed in transfected cells; host or cells: HEK Aequorin cells, Maxcyte transient transfection
- TEST CONTEXT: GPR139 Agonist Activity
PARAMETER MEASURED: Lipophilic Efficiency (logD)

COMPOUND | Lipophilic Efficiency (logD)
Cc1ccc2c(c1)-c1c(cnn1CC(=O)Nc1ncccc1C)CO2 | 3.26
O=C(Cn1nnc2c1-c1ccccc1OC2)Nc1cccc(Cl)c1 | 3.32
CC1(c2ccc3c(c2)OCO3)NC(=O)N(CC(=O)NC2CCCC2)C1=O (stereo not drawn) | 5.32
COc1cccc(CNC(=O)Nc2ccc(-c3ccncc3)cc2)c1.O=C(O)C(F)(F)F | 3.29
O=C(Cn1ncn2cccc2c1=O)NCCc1ccc(Cl)cc1 | 5.11
O=C(CN1CCCN(Cc2ccc(F)cc2Cl)C1=O)NC1CCCCC1 | 3.97

* * *

- TESTED TARGET: UniProt:Q6DWJ6
- Sequence (Q6DWJ6 1-353): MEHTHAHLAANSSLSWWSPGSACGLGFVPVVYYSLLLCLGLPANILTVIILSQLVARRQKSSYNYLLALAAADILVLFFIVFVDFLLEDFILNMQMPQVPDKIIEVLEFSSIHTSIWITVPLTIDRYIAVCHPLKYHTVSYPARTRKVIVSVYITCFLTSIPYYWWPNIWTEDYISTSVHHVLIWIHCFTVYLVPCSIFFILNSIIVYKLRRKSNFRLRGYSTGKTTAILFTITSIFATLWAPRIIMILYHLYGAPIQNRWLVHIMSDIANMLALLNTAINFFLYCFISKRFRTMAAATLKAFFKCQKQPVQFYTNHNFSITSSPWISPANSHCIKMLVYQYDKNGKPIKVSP
- TEST NAME: GPR139 Agonist titration / agonist counterscreen assay (calcium detection, HEK-GPR139 cells)
- Type: cell-based
- Parameters: expressed in transfected cells; host or cells: HEK Aequorin cells, Maxcyte transient transfection
- TEST CONTEXT: GPR139 Agonist Activity
- Protocol: GPR activity was assessed using a calcium detection assay. […] Negative control samples were treated with DMSO. […] Intracellular calcium was measured using Calcium 5.
PARAMETER MEASURED: Efficiency Ligand

COMPOUND | PARAMETER MEASURED | RESULT VALUE
COc1cc(OC)cc(C(=O)NNC(=O)COc2cc(C)c(Cl)c(C)c2)c1 | Efficiency Ligand | 0.31

A. O=C(Cn1ncc2c1-c1ccccc1OC2)Nc1ccc(Cl)cc1 [SR-01000098980]
B. CCc1c(C2C(C(=O)OCc3ccccc3)=C(C)CC3=C2C(=O)CCC3)ccc(OC)c1OC (stereo not shown)
Returns: the argument ( A or B ) having the larger Efficiency Ligand. Your answer should be the label attached to the chosen record. A
(A: 0.36, B: 0.24)

* * *

- TESTED TARGET: GPR139 (Homo sapiens, UniProt Q6DWJ6)
- TEST NAME: GPR139 Agonist titration / agonist counterscreen assay (calcium detection, HEK-GPR139 cells)
- Type: cell-based
- Design: expressed in transfected cells; host or cells: HEK Aequorin cells, Maxcyte transient transfection
- TEST CONTEXT: GPR139 Agonist Activity; ligand efficiency
PARAMETER MEASURED: Efficiency Ligand

MOLECULE | Efficiency Ligand
O=C(CCCOc1ccc(Cl)cc1Cl)NNC(=O)Cc1ccccc1 [SR-01000067982] | 0.39
CN(C)C(CNC(=O)Nc1ccc(Cl)c(Cl)c1)c1cccnc1 (stereo not drawn) [SR-01000127953] | 0.40
Cc1ccc(C)c(C(=O)CCC(=O)NNC(=O)c2cc(C)oc2C)c1 [SR-01000069642] | 0.41
Cc1ccc(C)c(C(=O)CCC(=O)NNC(=O)CSc2nc3ccccc3o2)c1 [SR-01000073202] | 0.39
COc1ccc(CNC(=O)Nc2ccc(-c3cn[nH]c3)cc2)cc1.O=C(O)C(F)(F)F [SR-00000005347] | 0.39
CC(NC(=O)CN1C(=O)c2cccc([N+](=O)[O-])c2C1=O)c1ccc(Cl)cc1Cl (stereo not drawn) [SR-01000074712] | 0.40

* * *

- TESTED TARGET: UniProt:Q6DWJ6
- TEST NAME: GPR139 Agonist titration / agonist counterscreen assay (calcium detection, HEK-GPR139 cells)
- Format: cell-based
- Design: expressed in transfected cells; host or cells: HEK Aequorin cells, Maxcyte transient transfection
- TEST CONTEXT: GPR139 Agonist Activity; values printed in E-notation without unit; read-out: EC50
PARAMETER MEASURED: EC50 (nM)

The examples below pair each entry with its known result.
COMPOUND | EC50 (nM)
CCOc1ccc(C(=O)NCCc2ccc(F)cc2)cc1OCC | 205
O=C(CCCOc1ccc(Cl)cc1Cl)NNC(=O)Cc1ccccc1 | 98.6
CC(C)C(CC(=O)Cc1cccc2ccccc12)C(=O)Nc1cccc(C#N)c1 (stereo not drawn) | 19.6
COc1ccc(CCC(=O)Nc2ccc(-c3cn[nH]c3)c(OC)c2)cc1 | 62
O=c1nc(SCc2ccccc2F)c2c([nH]1)CCC2 | 158

1. O=C(Cn1ccc2ccccc21)NCCn1cnc(-c2ccccc2)cc1=O
2. Cc1onc(-c2ccccc2Cl)c1C(=O)NNC(=O)CSc1ccccc1[N+](=O)[O-]
3. CC1(c2ccc3c(c2)OCO3)NC(=O)N(CC(=O)Nc2ccccc2[N+](=O)[O-])C1=O (stereo not drawn)
Put the items in sequence by EC50, from largest down. Answer format: the labels, in the requested order. 3, 1, 2

A. CC(NC(=O)CN1CCN(Cc2ccc(Cl)cc2)C1=O)c1ccccc1 (stereo not drawn)
B. CC(C)(C)CN1CCNC(=O)C1CC(=O)NCCc1cnn(-c2ccccc2)c1 (stereo not drawn)
# return whichever of A and B has the smaller EC50 Your choice should be expressed through its label. B

The origin of these recorded values is patent US20250099420A1.
